Species on record: Rattus norvegicus
Experiment: DrugMatrix - Regimen: Daily Repeat
Assay type: toxicity, organism-based, Sprague-Dawley
Design: regimen Daily Repeat, gender Male, age 6-8 weeks
Settings: in vivo, po, 0.0007 mg/kg, 2184 h, tissue Blood, route oral GAVAGE, dose level Low, time 91 day, vehicle .5 % CMC
quantityKind: ABSOLUTE BASOPHIL

Consider the molecule shown here: Clc1cc2c(cc1Cl)Oc1cc(Cl)c(Cl)cc1O2 [2,3,7,8-TETRACHLORODIBENZO-P-DIOXIN] What is its recorded ABSOLUTE BASOPHIL?
270 cells/µL

###

molecules and their reported LACTATE DEHYDROGENASE
Species on record: Rattus norvegicus
Experiment: DrugMatrix - Regimen: Daily Repeat
Assay type: toxicity, organism-based, Sprague-Dawley
Set-up: regimen Daily Repeat, gender Male, age 6-8 weeks
Conditions: in vivo, po, 1500 mg/kg, 120 h, tissue Plasma, route oral GAVAGE, dose level High, time 5 day, vehicle .5 % CMC

{"molecule": "C[C@@H](O)[C@H]1C(=O)N2C(C(=O)O)=C(S[C@@H]3CN[C@H](C(=O)N(C)C)C3)[C@H](C)[C@H]12", "LACTATE DEHYDROGENASE": "127.33 u/L"}
{"molecule": "CCOC(=O)[C@H](CCc1ccccc1)N[C@@H](C)C(=O)N1CCC[C@H]1C(=O)O", "LACTATE DEHYDROGENASE": "268.33 u/L"}
{"molecule": "Nc1nc2c(c(=O)[nH]1)N(C=O)C(CNc1ccc(C(=O)N[C@@H](CCC(=O)O)C(=O)O)cc1)CN2 (some centres undefined)", "LACTATE DEHYDROGENASE": "263.67 u/L"}

Returns the measured LACTATE DEHYDROGENASE for the input molecule. Input: CC(C)(Sc1cc(C(C)(C)C)c(O)c(C(C)(C)C)c1)Sc1cc(C(C)(C)C)c(O)c(C(C)(C)C)c1
174.33 u/L

###

Species: Rattus norvegicus
Assay: DrugMatrix - Regimen: Daily Repeat
Type: toxicity, organism-based, Sprague-Dawley
Design: regimen Daily Repeat, gender Male, age 6-8 weeks
Details: in vivo, po, 0 mg/kg, 120 h, tissue Blood, route oral GAVAGE, dose level Control, time 5 day, vehicle .5 % CMC
Recorded measurements of ABSOLUTE SEGMENTED NEUTROPHIL, one per entry
Give your result in CELLS/uL as a bare value.

{"molecule": "Cc1cnc(C(=O)NCCc2ccc(S(=O)(=O)NC(=O)NC3CCCCC3)cc2)cn1 [GLIPIZIDE]", "unitAbbrev": "CELLS/uL", "measuredNumber": 1308.17}
{"molecule": "CCCCC1C(=O)N(c2ccccc2)N(c2ccccc2)C1=O", "unitAbbrev": "CELLS/uL", "measuredNumber": 1327}
{"molecule": "CC(=O)O[C@]1(C(C)=O)CC[C@H]2[C@@H]3C=C(Cl)C4=CC(=O)[C@@H]5C[C@@H]5[C@]4(C)[C@H]3CC[C@@]21C [CYPROTERONE ACETATE]", "unitAbbrev": "CELLS/uL", "measuredNumber": 1308.17}
{"molecule": "COc1ccc(/C=C/C(=O)Nc2ccccc2C(=O)O)cc1OC", "unitAbbrev": "CELLS/uL", "measuredNumber": 1468.33}
{"molecule": "CCOC(=O)[C@H](CCc1ccccc1)N[C@@H](C)C(=O)N1Cc2ccccc2C[C@H]1C(=O)O", "unitAbbrev": "CELLS/uL", "measuredNumber": 1308.17}
{"molecule": "CC(C)(Sc1cc(C(C)(C)C)c(O)c(C(C)(C)C)c1)Sc1cc(C(C)(C)C)c(O)c(C(C)(C)C)c1", "unitAbbrev": "CELLS/uL", "measuredNumber": 1468.33}

Okay, now this molecule:
ABSOLUTE SEGMENTED NEUTROPHIL for CN1C(=O)CN=C(c2ccccc2)c2cc(Cl)ccc21 ?
1084.33

###

Listing: CREATININE of selected compounds
Species: Rattus norvegicus
Assay: DrugMatrix - Regimen: Daily Repeat
Assay type: toxicity, organism-based, Sprague-Dawley
Set-up: regimen Daily Repeat, gender Male, age 6-8 weeks
Settings: in vivo, po, 0 mg/kg, 72 h, tissue Plasma, route oral GAVAGE, dose level Control, time 3 day, vehicle .5 % CMC
Quick reminder: number only, in mg/dL, skip the unit.

Some entries whose results are on file:
{"compound": "CC(C)(Sc1cc(C(C)(C)C)c(O)c(C(C)(C)C)c1)Sc1cc(C(C)(C)C)c(O)c(C(C)(C)C)c1 [PROBUCOL]", "CREATININE [mg/dL]": 0.2}
{"compound": "Nc1cccc(Cl)c1 [3-CHLOROANILINE]", "CREATININE [mg/dL]": 0.48}
{"compound": "CO[C@H]1C[C@@H]2CC[C@@H](C)[C@@](O)(O2)C(=O)C(=O)N2CCCC[C@H]2C(=O)O[C@H]([C@H](C)C[C@@H]2CC[C@@H](O)[C@H](OC)C2)CC(=O)[C@H](C)/C=C(\\C)[C@@H](O)[C@@H](OC)C(=O)[C@H](C)C[C@H](C)/C=C/C=C/C=C/1C [SIROLIMUS]", "CREATININE [mg/dL]": 0.14}

Turning now to a further compound:
Query (compound): CC(C(=O)O)c1ccc(-c2ccccc2)c(F)c1 (configuration not stated) [FLURBIPROFEN] ; field requested: CREATININE
0.2

###

Species: Rattus norvegicus
Assay: DrugMatrix - Regimen: Daily Repeat
Assay type: toxicity, organism-based, Sprague-Dawley
Set-up: regimen Daily Repeat, gender Male, age 6-8 weeks
Settings: in vivo, po, 100 mg/kg, 72 h, tissue Blood, route oral GAVAGE, dose level Low, time 3 day, vehicle .5 % CMC
quantityKind: ABSOLUTE BASOPHIL (CELLS/uL)
Give a bare numeral; the unit CELLS/uL is implied.

Below are worked cases with known answers.
{"compound": "Nc1nc2c(c(=O)[nH]1)N(C=O)C(CNc1ccc(C(=O)N[C@@H](CCC(=O)O)C(=O)O)cc1)CN2 (some centres undefined)", "measuredNumber": 0}
{"compound": "C#C[C@]1(O)CC[C@H]2[C@@H]3CCC4=Cc5oncc5C[C@]4(C)[C@H]3CC[C@@]21C", "measuredNumber": 0}

// switching to the query compound
Please give the measured ABSOLUTE BASOPHIL for this compound: CC=Cc1ccc(O)c(OC)c1
0

###

Organism: Rattus norvegicus
Assay: DrugMatrix - Regimen: Daily Repeat
Type: toxicity, organism-based, Sprague-Dawley
Set-up: regimen Daily Repeat, gender Male, age 6-8 weeks
Conditions: in vivo, po, 0 mg/kg, 72 h, tissue Blood, route oral GAVAGE, dose level Control, time 3 day, vehicle 100 % WATER
In this section we review reported LYMPHOCYTE values for a set of compounds.
Numbers only; they are read as %.

Below, 5 compounds whose answers are already recorded.
{"compound": "O=C(O)c1cc(=O)c2c(OCC(O)COc3cccc4oc(C(=O)O)cc(=O)c34)cccc2o1 [CROMOLYN]", "measuredNumber": 82.33}
{"compound": "CNS(=O)(=O)Cc1ccc2[nH]cc(CCN(C)C)c2c1", "measuredNumber": 89.83}
{"compound": "Nc1ccc(S(=O)(=O)Nc2ncccn2)cc1 [SULFADIAZINE]", "measuredNumber": 82.33}
{"compound": "CC(C)(C)NC[C@H](O)COc1nsnc1N1CCOCC1 [TIMOLOL]", "measuredNumber": 90.17}
{"compound": "CCCc1nn(C)c2c(=O)[nH]c(-c3cc(S(=O)(=O)N4CCN(C)CC4)ccc3OCC)nc12", "measuredNumber": 92.67}

Entry CCN(CC)CC#CCOC(=O)C(O)(c1ccccc1)C1CCCCC1 (configuration not stated) [OXYBUTYNIN] : reported LYMPHOCYTE = ?
85.5

Now this one: Nc1ccc(S(=O)(=O)Nc2nccs2)cc1 [SULFATHIAZOLE]
90.17

Let us now turn to CCCCCCCCCCCCCCCC[n+]1ccccc1.[Br-]
91.67

Please answer likewise for CN1C2CCCC1CC(NC(=O)c1nn(C)c3ccccc13)C2 (configuration not stated) [GRANISETRON]
90.17

Same read-out for CC[C@H]1OC(=O)[C@H](C)[C@@H](O[C@H]2C[C@@](C)(OC)[C@@H](O)[C@H](C)O2)[C@H](C)[C@@H](O[C@@H]2O[C@H](C)C[C@H](N(C)C)[C@H]2O)[C@](C)(OC)C[C@@H](C)C(=O)[C@H](C)[C@@H](O)[C@]1(C)O [CLARITHROMYCIN] ?
93

Let us now turn to O=P1(N(CCCl)CCCl)NCCCO1 (configuration not stated) [CYCLOPHOSPHAMIDE ANHYDROUS]
91.17

Record: CC[C@H]1OC(=O)[C@H](C)[C@@H](O[C@H]2C[C@@](C)(OC)[C@@H](O)[C@H](C)O2)[C@H](C)[C@@H](O[C@@H]2O[C@H](C)C[C@H](N(C)C)[C@H]2O)[C@](C)(O)C[C@@H](C)CN(C)[C@H](C)[C@@H](O)[C@]1(C)O [AZITHROMYCIN]
89

Cool, now Cc1c(N(C)CS(=O)(=O)[O-])c(=O)n(-c2ccccc2)n1C.[Na+] [DIPYRONE SODIUM]
88

Same question, CCN[C@@H](C)Cc1cccc(C(F)(F)F)c1 [DEXFENFLURAMINE] this time
82.33

Quick one: OCCO [ETHYLENE GLYCOL]
92.67

Repeat with O=C(O)c1cccnc1 [NIACIN]
92.33

Another compound to look at: CCOC(N)=O
90.17
